# Tested on: HOP-18
# EXPERIMENTAL_DETAILS: NCI tumour cell line growth inhibition, 48 h
The source made the active and inactive calls. Rule as the data show it: active = GI50 up to about 1.1 µM and inactive = higher.
MEASURED_QUANTITY: GI50

# count of solved cases: 3
MOLECULE: COC1CCC2C(=O)CCCC2O1 (configuration not stated)
REPORTED_RESULT: > 100 µM (inactive)
--
MOLECULE: COc1ccc(S(=O)(=O)Nc2ccccc2C(=O)O)cc1
REPORTED_RESULT: > 100 µM (inactive)
--
MOLECULE: N/C(=N\O)N/N=C/c1cccc(F)c1
REPORTED_RESULT: 25.1 µM (inactive)

Batch request: GI50 per item, same order as input.
1. O=C1CCC(c2ccccc2)=NN1c1nc2ccccc2s1
2. CCOC(=O)c1cc(C(=O)O)c(=O)n2c1[nH]c1ccccc12
3. CCCCCCC(C)CCCCCCCCCCC(=O)O (configuration not stated)
4. Cn1cccc1/C=C/c1cc(Br)c(/C=C/c2cccn2C)cc1Br
5. CCOC(=O)/C(C#N)=C(O)/C(=C/c1ccccc1Cl)NC(=O)c1ccccc1
6. Nc1nnc(O)c2c1c(I)cn2C1OC(CO)C(O)C1O (configuration not stated)

Result ::
1. 18.8 µM (inactive)
2. 42.1 µM (inactive)
3. > 100 µM (inactive)
4. 5 µM (inactive)
5. > 100 µM (inactive)
6. 3.05 µM (inactive)

Below are 2 molecules. Give each one its GI50.
1. COC1(OC)CC2OC1C1N=NN(C(=O)OC(C)(C)C)C21 (configuration not stated)
2. CCN1C(=O)N(C)C(O)c2c1nc1ccccn1c2=O (configuration not stated)

Result ::
1. > 100 µM (inactive)
2. 22.3 µM (inactive)

Query :: Tell me its GI50 given O=C(O)C1=C(O)C(C(=O)O)C23CCCCCCCCCCC12C(C(=O)O)C(O)=C3C(=O)O (configuration not stated) as the entry.
Result :: > 100 µM (inactive)

* * *

Answer each item with its documented GI50.
# Tested on: LOX IMVI
# EXPERIMENTAL_DETAILS: NCI tumour cell line growth inhibition, 48 h
Calls of active or inactive are those of the source. Rule as the data show it: active = GI50 up to about 1.1 µM and inactive = higher.

The cases that follow already have their GI50 on record.
COMPOUND: CS/C(Nc1ccccc1)=C1\C(=O)N(c2ccccc2)N=C1C
MEASURED_QUANTITY: GI50
REPORTED_RESULT: > 100 µM (inactive)

COMPOUND: CC(C)[Si](OCC1CC(C#N)OC(C)(C)O1)(C(C)C)C(C)C (stereo not drawn)
MEASURED_QUANTITY: GI50
REPORTED_RESULT: 19.3 µM (inactive)

COMPOUND: NC(=S)N/N=C(\Cc1nc2ccc(Cl)cc2nc1O)C(=O)Nc1ccc(Cl)cc1
MEASURED_QUANTITY: GI50
REPORTED_RESULT: > 100 µM (inactive)

COMPOUND: CSC(=S)N(C)NC(=O)c1cccc(C(=O)NN(C)C(=S)SC)n1
MEASURED_QUANTITY: GI50
REPORTED_RESULT: 31.4 µM (inactive)

COMPOUND: C#CCn1c(=O)c2ccccc2n(CC#C)c1=O
MEASURED_QUANTITY: GI50
REPORTED_RESULT: > 10 µM (inactive)

For each listed entry, give its GI50.
1. N/C(=N\O)N/N=C/c1cccc(F)c1
2. Fc1ccc(OCc2nc3cc(C(F)(F)F)ccc3nc2-c2ccccc2)cc1
3. CC(=O)Nc1ccc(C2=N/C(=C\c3ccc(Cl)cc3)C(=O)O2)cc1
4. COC(=O)NN1C(=O)C(=P(c2ccccc2)(c2ccccc2)c2ccccc2)C(C(=O)OC)=C1C
5. CC(=O)OC1C/C(C)=C/CCC(C)/C=C/C2(C)CCC(C(C)(C)O)C12 (stereo not drawn)
6. N=C(N)NCCCC(NC(=O)c1c2ccccc2nc2ccccc12)C(=O)O (stereo not drawn)
7. O=C(O)C/C=C/CC(=O)O
8. CC1(C)CC[C@]2(C)[C@@H](O)C[C@]3(C)C(=CC[C@@H]4[C@@]5(C)CC[C@H](O)C(C)(C)[C@@H]5CC[C@]43C)[C@@H]2C1

Result ::
1. 26.8 µM (inactive)
2. > 100 µM (inactive)
3. 18.4 µM (inactive)
4. > 100 µM (inactive)
5. 39.1 µM (inactive)
6. > 100 µM (inactive)
7. > 100 µM (inactive)
8. 16.4 µM (inactive)

For every item in the list below, what is its measured GI50?
1. CCOC(=O)C1(C#N)OC(=O)c2cnccc21 (stereo not drawn)
2. Cc1ccc(S(=O)(=O)OC(c2ccc(Cl)cc2Cl)C2OC(=O)c3ccccc32)cc1 (stereo not drawn)
3. CC(=O)N(CCc1ccccc1)C(C)(C#N)c1ccccc1 (stereo not drawn)
4. CC(C)C(Br)CC/C(CBr)=C(\Cl)CCl (stereo not drawn)
5. O=C(Nc1ccc2oc(=O)c(C(=O)O)cc2c1)Oc1ccccc1
6. O=C(O)/C=N\N=c1[nH]c2ccccc2[nH]1
7. O=C(NCc1cccs1)OC1CC2CCC1C2 (stereo not drawn)

Result ::
1. > 100 µM (inactive)
2. > 100 µM (inactive)
3. > 100 µM (inactive)
4. 0.355 µM (active)
5. > 100 µM (inactive)
6. > 100 µM (inactive)
7. > 100 µM (inactive)

State the recorded GI50 for every item in the following list.
1. C[N+](C)([O-])C12CC3CC(CC(C3)C1)C2
2. CC(=O)OC1CC2CC(=O)CC1N2C (stereo not drawn)
3. CC/C(Cl)=N\OC(=O)Nc1ccc(OC)cc1

Result ::
["27.2 µM (inactive)", "> 100 µM (inactive)", "2.03 µM (inactive)"]

* * *

# Tested on: M14
# EXPERIMENTAL_DETAILS: NCI tumour cell line growth inhibition, 48 h
The source made the active and inactive calls. No stated cut-off is given here; in the data, active = GI50 up to about 1.1 µM and inactive = higher.
MEASURED_QUANTITY: GI50

Worked examples, 5 molecules total:
MOLECULE: N=C(N)NCCCC(NC(=O)c1c2ccccc2nc2ccccc12)C(=O)O (stereo unspecified)
GI50: > 100 µM (inactive)

MOLECULE: CCOC(=O)C(=O)Nc1c(CC)cccc1C(C)CC (stereo unspecified)
GI50: > 100 µM (inactive)

MOLECULE: O=C(O)C/C=C/CC(=O)O
GI50: > 100 µM (inactive)

MOLECULE: CC(SC(=S)N1CCCCC1)C(=O)Nc1nnc(-c2ccc(Cl)cc2)o1 (stereo unspecified)
GI50: 20.1 µM (inactive)

MOLECULE: COc1cc(/C=C/c2cccnc2)cc(OC)c1OC
GI50: > 100 µM (inactive)

Query :: Give GI50 for CC(=O)c1ccccc1NCC(=O)Nn1cnc2ccc(S(=O)(=O)Nc3ccccc3C(C)=O)cc2c1=O tested on M14.
Result :: > 100 µM (inactive)

* * *

# Tested on: OVCAR-4
# EXPERIMENTAL_DETAILS: NCI tumour cell line growth inhibition, 48 h
Active and inactive are the calls of the source. No stated cut-off is given here; in the data, active = GI50 up to about 1.1 µM and inactive = higher.
One label from this list, please: active, inactive

# count of solved cases: 4
COMPOUND: CC(=O)OC1C/C(C)=C/CCC(C)/C=C/C2(C)CCC(C(C)(C)O)C12 (stereo not given)
CAT: inactive

COMPOUND: COc1ccc(NCc2cc(OC)cc(OC)c2)cc1
CAT: inactive

COMPOUND: CCOP(=O)(OCC)C(C)(CC)NC (stereo not given)
CAT: inactive

COMPOUND: CC(C)=CCC[C@@H](C)C1=C(O)C(=O)C(C)=C(N)C1=O
CAT: inactive

# evaluate next
Query :: Answer briefly: the call reported for COc1cccc2c1C(=O)c1c(O)c3c(c(O)c1C2=O)C[C@@](O)(C(=O)CO)C[C@@H]3OC1CC(N(C)C)C(O)C(C)O1 (stereo not given in full) in this assay.
Result :: active

* * *

Give measured GI50 for each item. Keep answers brief.
# System: NCI-H522
# EXPERIMENTAL_DETAILS: NCI tumour cell line growth inhibition, 48 h
The source made the active and inactive calls. Cut-off read from the data, not from the text of the source: active = GI50 up to about 1.1 µM and inactive = higher.

MOLECULE: CC(C)=CCC/C(C)=C/CC/C(C)=C/CC/C(C=O)=C/CC/C(C)=C\CC/C(C)=C/CC/C(C)=C/CC/C(C)=C/CC1=CC(=O)C=CC1=O
GI50: 14.9 µM (inactive)
//
MOLECULE: COC1C=CC(C(=O)[N+]2=Cc3[nH]c4ccccc4c3CC2)O1 (stereo not given)
GI50: 34.9 µM (inactive)
//
MOLECULE: CC(C)c1cccc(=O)c(O)c1
GI50: 1.39 µM (inactive)
//
MOLECULE: Nc1nc(O)c2nc(N)n(Cc3ccccc3)c2n1
GI50: > 100 µM (inactive)
//
MOLECULE: c1ccc2c(c1)[nH]c1c3ccccc3sc21
GI50: > 100 µM (inactive)
//
MOLECULE: CCOC(=O)Cc1c(Cc2[nH]c(C(=O)OCc3ccccc3)c(CC(=O)OCC)c2CC(=O)OCC)[nH]c(C(=O)OCc2ccccc2)c1CC(=O)OCC
GI50: > 100 µM (inactive)

// for each molecule below, give its GI50
1. CC(C)C[C@H]1[C@@H](OCc2ccccc2)COS(=O)N1[C@H](C)c1ccccc1 (stereo not given in full)
2. NCCSc1nc(-c2ccccc2)c(-c2ccccc2)o1
3. Cc1c2n(c3ccccc13)CC1CON(C)C21 (stereo not given)
4. Cn1cccc1/C=C/c1cc(Br)c(/C=C/c2cccn2C)cc1Br

Result ::
1. 4.33 µM (inactive)
2. 29.6 µM (inactive)
3. > 100 µM (inactive)
4. 14.5 µM (inactive)
